Catalogue of growth readings, one per entry.
System: SK-OV-3 ovarian
Experiment: NCI-60 one-dose screen, 48 h (100 = growth as untreated, 0 = no growth, -100 = all killed)
Details: 10 µM unless noted
This is part of a sample that, as a whole, favours compounds with a hit. Of some 83,000 tested, about 20% had one in any assay.
Please reply with the bare figure in % and do not write the unit itself.

Below: 2 compounds and their reported growth.
[
  {
    "compound": "CCOC(=O)C(=Cc1c(-c2ccccc2)[nH]c2ccccc12)C(=O)OCC",
    "uom": "%",
    "growth": 94.5
  },
  {
    "compound": "N#Cc1c(-c2ccc(F)cc2)nc(N/N=C/c2c[nH]c3ccccc23)nc1N1CCOCC1",
    "uom": "%",
    "growth": 92.6
  }
]

Entry C=C1C(=O)O[C@H]2[C@H]1CC/C(COC(=O)CCCCCCCC(=O)OC/C1=C/CC[C@@]3(C)O[C@H]3[C@H]3OC(=O)C(=C)[C@@H]3CC1)=C\CC[C@@]1(C)O[C@@H]21 : reported growth = ?
101

Same question, O=C(O)COc1ccc2c(=O)c3sc4c(=O)c5ccccc5c(=O)c4c3c(=O)c2c1 this time
88.1

Now consider Cc1cnc(SCc2ccc(Cl)cc2Cl)nc1Nc1ccc(Cl)c(Cl)c1 and answer again.
97.9

====

Tested on: UACC-62 melanoma
Test: NCI-60 one-dose screen, 48 h (100 = growth as untreated, 0 = no growth, -100 = all killed)
Details: 10 µM unless noted
Compounds without any hit were thinned out: in the full panel of roughly 83,000, 20% have a hit. Activity calls are given as the source filed them. How the source made its calls: active means growth percent below 10; inactive means the rest.
quantityName: growth

These solved cases illustrate the format of a correct answer.
[
  {
    "compound": "COc1ccccc1N1CCN(CCCOc2ccc(C(=O)/C=C3/C(=O)Nc4ccccc43)cc2)CC1",
    "val": "56.1% (inactive)"
  },
  {
    "compound": "O=C(Nc1ccc2ncnc(Nc3ccc(F)c(Cl)c3)c2c1)c1ccccc1",
    "val": "92.2% (inactive)"
  }
]

Fill blank: measured growth of the compound O=S(=O)(O)c1ccc(N=NSc2ccc3ccccc3c2)cc1 is ____.
102% (inactive)

Would you kindly repeat that for O=c1nc(-c2ccccc2)c2cc(-c3ccc(N4CCCC4)nc3)ccc2[nH]1 ?
57.2% (inactive)

And N#Cc1nc(-c2ccccc2)oc1S(=O)(=O)NCC(c1ccc(Cl)cc1)N1CCCCC1 (stereo not given) ?
80.2% (inactive)

Another compound to look at: Oc1ccccc1-c1nc2c3ccccc3c3ccccc3c2o1
88.4% (inactive)

Please answer likewise for c1ccc(-c2n(Cc3ccc4ccccc4n3)cc[n+]2Cc2ccc3ccccc3n2)cc1
-10.3% (active)

Queued: COc1ccc2nc(-c3ccc(Cl)cc3)cc(C(=O)N3N=C(c4ccc(N)cc4)CC3c3ccccc3)c2c1 (stereo not given)
37% (inactive)

Another compound: Nc1c(C(=O)Nc2ccccc2)sc2nc3c(cc12)CN(C(=O)OCc1ccccc1)CC3
43% (inactive)

Then what about the compound COc1ccc(C2N(c3cc(OC)c(OC)c(OC)c3)C(=O)C2(F)F)cc1F (stereo not given) ?
55.5% (inactive)

====

Test system: NCI-H226 lung
Assay: NCI-60 one-dose screen, 48 h (100 = growth as untreated, 0 = no growth, -100 = all killed)
Details: 10 µM unless noted
This is part of a sample that, as a whole, favours compounds with a hit. Of some 83,000 tested, about 20% had one in any assay.
Assign true (1) to entries whose growth meets or exceeds 90%; assign false (0) to the rest.

[
  {
    "smilesStr": "C#CC[C@@H]1C[C@]2(C)[C@H]3CC[C@@H]4[C@H]5[C@H](C(=C)C)CC[C@]5(C(=O)O)CC[C@@]4(C)[C@]3(C)CC[C@H]2C(C)(C)[C@H]1O",
    "assignedLabel": "false (0)"
  },
  {
    "smilesStr": "COC(=O)/C=C/c1cc(OC)c2c(c1)[C@@H](C(=O)OC)[C@H](c1ccc(OC)c(OC)c1)O2",
    "assignedLabel": "false (0)"
  }
]

Please turn your attention to the following entry.
Form field: growth at least 90%? Entry: Cc1cc(NC(=O)CNc2nc(Oc3ccc(F)cc3)nc(-c3ccc(F)cc3)n2)ccc1Cl
true (1)
